src = ChEMBL document CHEMBL4613311

Listed below: selectivity ratio values for each entry.
assay-comment: Selectivity index, ratio of IC50 for human AB943 cells to IC50 for antiplasmodial activity against chloroquine resistant Plasmodium falciparum FcB1/Colombia infected in human erythrocytes
Type: toxicity, cell-based
assay-context: read-out: Ratio IC50
Lab note: record the figure alone, no unit after it.

molecule: COC12OOC3(C=C1C(=O)C(C)(C)C(=O)C2(C)C)CCN(C(=O)CCC(=O)N(CCCCNC(=O)CC[C@H]1O[C@@H]2O[C@@]4(C)CC[C@H]5[C@H](C)CC[C@@H]([C@H]1C)[C@@]25OO4)CCCNC(=O)CC[C@H]1O[C@@H]2O[C@@]4(C)CC[C@H]5[C@H](C)CC[C@@H]([C@H]1C)[C@@]25OO4)CC3 (stereo partly specified)
selectivity ratio: 2110

molecule: COC12OOC3(C=C1C(=O)C(C)(C)C(=O)C2(C)C)CCN(C(=O)CCC(=O)N(CCCCNC(=O)CC[C@H]1O[C@@H]2O[C@@]4(C)CC[C@H]5[C@H](C)CC[C@@H]([C@H]1C)[C@@]25OO4)CCCCNC(=O)CC[C@H]1O[C@@H]2O[C@@]4(C)CC[C@H]5[C@H](C)CC[C@@H]([C@H]1C)[C@@]25OO4)CC3 (stereo partly specified)
selectivity ratio: 983

molecule: COC12OOC3(C=C1C(=O)C(C)(C)C(=O)C2(C)C)CCN(C(=O)CCC(=O)NCC[C@H]1O[C@@H]2O[C@@]4(C)CC[C@H]5[C@H](C)CC[C@@H]([C@H]1C)[C@@]25OO4)CC3 (stereo partly specified)
selectivity ratio: 144

molecule: C[C@H]1[C@@H](CCC(=O)NCCCCN(CCCCNC(=O)CC[C@H]2O[C@@H]3O[C@@]4(C)CC[C@H]5[C@H](C)CC[C@@H]([C@H]2C)[C@@]35OO4)C(=O)CCC(=O)NCCNc2ccnc3cc(Cl)ccc23)O[C@@H]2O[C@@]3(C)CC[C@H]4[C@H](C)CC[C@@H]1[C@@]24OO3
selectivity ratio: 328

Kindly consider the entry below.
[ask] So what's the measured selectivity ratio for this one? COC12OOC3(C=C1C(=O)C(C)(C)C(=O)C2(C)C)CCN(C(=O)CC[C@H]1O[C@@H]2O[C@@]4(C)CC[C@H]5[C@H](C)CC[C@@H]([C@H]1C)[C@@]25OO4)CC3 (stereo partly specified)
[reply] 16400
